Activity calls are given as the source filed them.
// Kd collected for Myosin light chain kinase, smooth muscle (Homo sapiens, UniProt Q15746)

Indicate its recorded Kd; the compound in question is COc1c(OCCCN2CCOCC2)ccc2c1N=C(NC(=O)c1cnc(N)nc1)N1CCN=C21
> 30 µM (inactive)

Indicate its recorded Kd; the compound in question is CO[C@H]1C[C@@H]2CC[C@@H](C)[C@@](O)(O2)C(=O)C(=O)N2CCCC[C@H]2C(=O)O[C@H]([C@H](C)C[C@@H]2CC[C@@H](OC(=O)C(C)(CO)CO)[C@H](OC)C2)CC(=O)[C@H](C)/C=C(\C)[C@@H](O)[C@@H](OC)C(=O)[C@H](C)C[C@H](C)/C=C/C=C/C=C/1C
> 30 µM (inactive)

Indicate its recorded Kd; the compound in question is CO[C@H]1C[C@@H]2CC[C@@H](C)[C@@](O)(O2)C(=O)C(=O)N2CCCC[C@H]2C(=O)O[C@H]([C@H](C)C[C@@H]2CC[C@@H](O)[C@H](OC)C2)CC(=O)[C@H](C)/C=C(\C)[C@@H](O)[C@@H](OC)C(=O)[C@H](C)C[C@H](C)/C=C/C=C/C=C/1C
> 30 µM (inactive)

Indicate its recorded Kd; the compound in question is CCn1c(C(=O)N(C2CC2)C2CC2)cc2c3c(ncn3C)c(Nc3cc(C)n(C)n3)nc21
> 30 µM (inactive)

Indicate its recorded Kd; the compound in question is Cn1cnc2c(F)c(Nc3ccc(Br)cc3F)c(C(=O)NOCCO)cc21
> 30 µM (inactive)

Indicate its recorded Kd; the compound in question is NC1(c2ccc(-c3nc4ccn5c(=O)[nH]nc5c4cc3-c3ccccc3)cc2)CCC1
> 30 µM (inactive)

Indicate its recorded Kd; the compound in question is CN1C/C=C/CCOc2cccc(c2)-c2ccnc(n2)Nc2cccc(c2)C1
> 30 µM (inactive)

Indicate its recorded Kd; the compound in question is Cn1cc(-c2cnc3ccc4ccc(CS(=O)(=O)NCc5ccccn5)cc4c(=O)c3c2)cn1
> 30 µM (inactive)

Indicate its recorded Kd; the compound in question is CCOc1cc2ncc(C#N)c(Nc3ccc(F)c(Cl)c3)c2cc1NC(=O)/C=C/CN(C)C
> 30 µM (inactive)

Indicate its recorded Kd; the compound in question is Cc1cc(Nc2ncc(Cl)c(Nc3ccccc3S(=O)(=O)C(C)C)n2)c(OC(C)C)cc1C1CCNCC1
> 30 µM (inactive)

Indicate its recorded Kd; the compound in question is Cc1csc(-c2nnc(Nc3ccc(Oc4ncccc4-c4ccnc(N)n4)cc3)c3ccccc23)c1
> 30 µM (inactive)

Indicate its recorded Kd; the compound in question is CCNC(=O)C#Cc1ccc2c(c1)NC(=O)/C2=C(\Nc1ccc(CN(C)C)cc1)c1ccccc1
> 30 µM (inactive)

---

# Target Entity: UniProt:Q06187
# Sequence (Q06187 whole entry): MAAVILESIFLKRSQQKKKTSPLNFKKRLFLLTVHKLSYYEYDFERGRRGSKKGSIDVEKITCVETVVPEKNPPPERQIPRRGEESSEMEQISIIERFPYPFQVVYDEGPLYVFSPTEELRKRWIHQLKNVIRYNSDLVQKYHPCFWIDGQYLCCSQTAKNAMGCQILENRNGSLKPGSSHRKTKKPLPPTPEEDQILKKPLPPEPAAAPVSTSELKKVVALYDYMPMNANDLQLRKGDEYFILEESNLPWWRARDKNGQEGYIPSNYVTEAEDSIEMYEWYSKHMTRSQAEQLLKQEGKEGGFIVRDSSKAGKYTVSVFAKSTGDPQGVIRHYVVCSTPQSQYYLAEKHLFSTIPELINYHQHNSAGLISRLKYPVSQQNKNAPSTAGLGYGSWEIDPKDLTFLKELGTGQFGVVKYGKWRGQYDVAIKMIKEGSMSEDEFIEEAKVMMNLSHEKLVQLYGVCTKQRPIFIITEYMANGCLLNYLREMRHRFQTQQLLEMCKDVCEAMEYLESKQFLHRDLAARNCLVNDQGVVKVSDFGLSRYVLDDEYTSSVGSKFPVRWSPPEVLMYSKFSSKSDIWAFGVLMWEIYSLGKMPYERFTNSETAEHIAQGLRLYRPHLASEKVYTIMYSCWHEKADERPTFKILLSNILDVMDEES
Calls of active or inactive are those of the source.
# output must be one of t for active, f for inactive

Test call, this molecule: CCS(=O)(=O)c1cccc(-c2cc(C(=O)NC3CCN(C)CC3)c(C)c3[nH]c4ncc(C)cc4c23)c1
t

Test call, this molecule: C[C@H]1CNCCCN1S(=O)(=O)c1cccc2cncc(F)c12
f

Test call, this molecule: C[C@@H](NC(=O)c1ncnc(N)c1Cl)c1ncc(C(=O)Nc2cc(C(F)(F)F)c(Cl)cn2)s1
f

Test call, this molecule: C[C@@H](N)c1ccc(C(=O)Nc2ccnc3[nH]ccc23)cc1
f

Test call, this molecule: COCC(=O)NC/C=C/c1ccc2ncnc(Nc3ccc(Oc4ccc(C)nc4)c(C)c3)c2c1
f

Test call, this molecule: CCOc1cc2ncc(C#N)c(Nc3ccc(F)c(Cl)c3)c2cc1NC(=O)/C=C/CN(C)C
t

Test call, this molecule: Cc1cc(Nc2ncnc3ccc(NC4=NC(C)(C)CO4)cc23)ccc1Oc1ccn2ncnc2c1
f

Test call, this molecule: O=C1NC(=O)[C@@H](c2cn3c4c(cccc24)CCC3)[C@@H]1c1c[nH]c2ccccc12 [TIVANTINIB]
f

Test call, this molecule: O=C(Nc1cc(C(F)(F)F)cc(C(F)(F)F)c1)c1cc(Cl)ccc1O
f

Test call, this molecule: NC1(c2ccc(-c3nc4ccn5c(=O)[nH]nc5c4cc3-c3ccccc3)cc2)CCC1
f

Test call, this molecule: NC(=O)Nc1cc(-c2cccc(F)c2)sc1C(=O)N[C@H]1CCCNC1
t

Test call, this molecule: Cc1nc(NC(=O)N2CCC[C@H]2C(N)=O)sc1-c1ccnc(C(C)(C)C(F)(F)F)c1
f

Test call, this molecule: COCc1c(-c2ccc(NC(=O)Nc3cc(C(F)(F)F)ccc3F)c(F)c2)c2c(N)ncnn2c1CN1CCOCC1
f

Test call, this molecule: Nc1ncnc2c1c(-c1cccc(OCc3ccccc3)c1)cn2[C@H]1C[C@@H](CN2CCC2)C1
f

Test call, this molecule: Cc1cccc(-c2nn3c(c2-c2ccnc4ccc(C(N)=O)cc24)CCC3)n1
f

Test call, this molecule: CN1CCN(CCOc2cc(OC3CCOCC3)c3c(Nc4c(Cl)ccc5c4OCO5)ncnc3c2)CC1
t

---

# Target Entity: Ephrin type-B receptor 2 (Homo sapiens); note: in the data inactive means no Kd found up to 30 µM
# Sequence (P29323 whole entry): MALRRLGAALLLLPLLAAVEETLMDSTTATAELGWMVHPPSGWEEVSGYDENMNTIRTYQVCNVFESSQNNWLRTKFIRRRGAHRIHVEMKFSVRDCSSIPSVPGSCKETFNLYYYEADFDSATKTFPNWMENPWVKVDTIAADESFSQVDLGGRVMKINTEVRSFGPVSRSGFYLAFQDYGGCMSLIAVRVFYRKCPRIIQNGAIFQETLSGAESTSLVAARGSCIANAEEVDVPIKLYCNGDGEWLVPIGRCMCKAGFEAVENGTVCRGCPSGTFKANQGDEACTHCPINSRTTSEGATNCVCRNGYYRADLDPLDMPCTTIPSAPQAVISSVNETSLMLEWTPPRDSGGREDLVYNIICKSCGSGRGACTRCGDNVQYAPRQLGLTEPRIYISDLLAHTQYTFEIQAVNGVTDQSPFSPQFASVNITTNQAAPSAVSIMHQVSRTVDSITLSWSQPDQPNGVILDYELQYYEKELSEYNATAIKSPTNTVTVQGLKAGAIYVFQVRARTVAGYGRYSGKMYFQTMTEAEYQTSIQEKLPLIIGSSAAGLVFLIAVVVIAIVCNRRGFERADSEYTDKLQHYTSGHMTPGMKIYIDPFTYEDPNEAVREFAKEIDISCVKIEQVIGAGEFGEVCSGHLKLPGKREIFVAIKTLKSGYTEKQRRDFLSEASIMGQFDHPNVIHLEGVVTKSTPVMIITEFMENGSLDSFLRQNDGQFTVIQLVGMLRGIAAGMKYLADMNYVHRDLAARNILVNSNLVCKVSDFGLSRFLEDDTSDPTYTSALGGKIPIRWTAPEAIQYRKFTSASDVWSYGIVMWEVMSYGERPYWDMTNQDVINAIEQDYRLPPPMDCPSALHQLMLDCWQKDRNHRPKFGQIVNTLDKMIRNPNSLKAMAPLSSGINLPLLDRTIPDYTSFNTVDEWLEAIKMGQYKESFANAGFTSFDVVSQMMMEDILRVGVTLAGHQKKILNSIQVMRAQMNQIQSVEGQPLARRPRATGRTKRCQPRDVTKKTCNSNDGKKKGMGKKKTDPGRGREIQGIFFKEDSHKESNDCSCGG
Counter-ions that a name gives are not always drawn. Calls of active or inactive are those of the source.
# output must be one of label 1 for active, label 0 for inactive

Test call, this compound: CC(=O)c1cnc2ccc(-c3cc(Cl)c(O)c(Cl)c3)nc2c1N[C@H]1CC[C@H](CN(C)C)CC1
label 1

Test call, this compound: CNC(=O)c1cccc2cc(Oc3ccnc4cc(OCC5(N)CC5)c(OC)cc34)ccc12
label 0

Test call, this compound: O=C(Cc1ccc(-c2ccc(OCCN3CCOCC3)cc2)cn1)NCc1ccccc1
label 0

Test call, this compound: CC(=O)NCC(=O)N1[C@@H]2CC[C@H]1c1ccc(Nc3ncc(C(F)(F)F)c(NC4CCC4)n3)cc12
label 0

Test call, this compound: COc1cc2c(Nc3ccc(Cl)c(Cl)c3F)ncnc2cc1OC[C@@H]1C[C@@H]2CN(C)C[C@@H]2C1
label 1

Test call, this compound: COc1ccc(S(=O)(=O)N(C(C)=O)c2ccccc2/C=C/c2cc[n+]([O-])cc2)cc1
label 0

Test call, this compound: COc1cc2ncnc(Oc3cccc(NC(=O)Nc4cc(C(C)(C)C(F)(F)F)on4)c3)c2cc1OC
label 0

Test call, this compound: CCS(=O)(=O)N1CCN(c2ccc(Nc3ncc(C(N)=O)c(NC4CC4)n3)cc2)CC1 [Cerdulatinib Hydrochloride]
label 0

Test call, this compound: CCn1cc(-c2ccnc3[nH]c(-c4cccc(CN(C)C)c4)cc23)c(-c2ccc(NC(=O)N(C)C)cc2)n1
label 0

Test call, this compound: CCn1c(C(=O)N(C2CC2)C2CC2)cc2c3c(ncn3C)c(Nc3cc(C)n(C)n3)nc21
label 0

Test call, this compound: Cc1[nH]c(/C=C2\C(=O)Nc3ccccc32)c(C)c1CCC(=O)O [ORANTINIB]
label 0

Test call, this compound: C[C@@H](N)c1ccc(C(=O)Nc2ccnc3[nH]ccc23)cc1
label 0

Test call, this compound: FC(F)(F)c1ccc(/C=C/c2nc(COc3ccc(CCCCn4ccnn4)cc3)co2)cc1
label 0

Test call, this compound: Cc1cc(C(=O)NOCCO)c(Nc2ccc(I)cc2F)n(C)c1=O
label 0

Test call, this compound: O=C(Nc1nc2cccc(-c3ccc(CN4CCS(=O)(=O)CC4)cc3)n2n1)C1CC1
label 0

Test call, this compound: COCC(=O)NC/C=C/c1ccc2ncnc(Nc3ccc(Oc4ccc(C)nc4)c(C)c3)c2c1
label 0

Test call, this compound: C[C@@H](Oc1cc(C(=O)Nc2ccc(C(=O)N3CCN(C)CC3)cc2)nnc1N)c1c(Cl)ccc(F)c1Cl
label 0

Test call, this compound: N#CC1(c2ccc(NC(=O)c3cccnc3NCc3ccncc3)cc2)CCCC1
label 0

Test call, this compound: CCS(=O)(=O)c1cccc(-c2cc(C(=O)NC3CCN(C)CC3)c(C)c3[nH]c4ncc(C)cc4c23)c1
label 1

Test call, this compound: CCNC(=O)C#Cc1ccc2c(c1)NC(=O)/C2=C(\Nc1ccc(CN(C)C)cc1)c1ccccc1
label 0

Test call, this compound: NC1(c2ccc(-c3nc4ccn5c(=O)[nH]nc5c4cc3-c3ccccc3)cc2)CCC1
label 0

Test call, this compound: Cn1ncc(Cl)c1-c1cc(C(=O)N[C@H](CN)Cc2ccc(F)c(F)c2)oc1Cl
label 0

---

# Target Entity: Interleukin-1 receptor-associated kinase 4 (Homo sapiens); note: in the data inactive means no Kd found up to 30 µM
# Sequence (Q9NWZ3 whole entry): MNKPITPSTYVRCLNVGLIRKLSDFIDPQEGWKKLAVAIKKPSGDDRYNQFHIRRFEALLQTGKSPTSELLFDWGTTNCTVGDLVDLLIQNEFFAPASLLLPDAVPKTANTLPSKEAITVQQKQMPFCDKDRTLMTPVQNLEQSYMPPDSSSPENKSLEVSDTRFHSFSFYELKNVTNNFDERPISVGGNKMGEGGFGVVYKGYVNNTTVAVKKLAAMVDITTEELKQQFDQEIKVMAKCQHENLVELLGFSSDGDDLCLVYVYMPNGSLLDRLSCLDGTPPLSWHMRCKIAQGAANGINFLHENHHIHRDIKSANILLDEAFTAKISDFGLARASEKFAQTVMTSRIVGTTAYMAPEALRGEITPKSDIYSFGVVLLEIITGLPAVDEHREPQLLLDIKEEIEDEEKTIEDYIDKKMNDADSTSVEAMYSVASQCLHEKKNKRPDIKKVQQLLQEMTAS
Activity calls are given as the source filed them.
# output must be one of t for active, f for inactive

Test call, this compound: CC(C)(C)c1nc(-c2cccc(NS(=O)(=O)c3c(F)cccc3F)c2F)c(-c2ccnc(N)n2)s1 [DABRAFENIB]
f

Test call, this compound: CCn1cc(-c2ccnc3[nH]c(-c4cccc(CN(C)C)c4)cc23)c(-c2ccc(NC(=O)N(C)C)cc2)n1 [GSK-1070916]
f

Test call, this compound: COc1cc2c(Nc3ccc(Cl)c(Cl)c3F)ncnc2cc1OC[C@@H]1C[C@@H]2CN(C)C[C@@H]2C1 [TESEVATINIB]
t

Test call, this compound: C#Cc1cccc(Nc2ncnc3cc(OC)c(OCCCCCCC(=O)NO)cc23)c1 [CUDC-101]
f

Test call, this compound: COc1ccc(S(=O)(=O)N(C(C)=O)c2ccccc2/C=C/c2cc[n+]([O-])cc2)cc1 [HMN-214]
f

Test call, this compound: N#CC1(c2ccc(NC(=O)c3cccnc3NCc3ccncc3)cc2)CCCC1 [RIVOCERANIB]
f

Test call, this compound: NC1(c2ccc(-c3nc4ccn5c(=O)[nH]nc5c4cc3-c3ccccc3)cc2)CCC1 [MK-2206]
f

Test call, this compound: CNC(=O)c1nn(C)c2c1C(C)(C)Cc1cnc(Nc3ccc(N4CCN(C)CC4)cc3)nc1-2 [MILCICLIB]
t

Test call, this compound: O=C(Cc1ccc(-c2ccc(OCCN3CCOCC3)cc2)cn1)NCc1ccccc1 [TIRBANIBULIN]
f

Test call, this compound: Cc1cc(Nc2ncc(Cl)c(Nc3ccccc3S(=O)(=O)C(C)C)n2)c(OC(C)C)cc1C1CCNCC1 [CERITINIB]
f

Test call, this compound: COCc1c(-c2ccc(NC(=O)Nc3cc(C(F)(F)F)ccc3F)c(F)c2)c2c(N)ncnn2c1CN1CCOCC1
f

Test call, this compound: Cc1cnc(NC(=O)Nc2cc(Br)c(C)cc2OC[C@@H]2CNCCO2)cn1 [RABUSERTIB]
f

Test call, this compound: O=c1[nH]ccc2cc(OC3CCNCC3)ccc12 [SAR-407899 FREE BASE]
f

Test call, this compound: COc1ncc(-c2ccc3nccc(-c4ccnnc4)c3c2)cc1NS(=O)(=O)c1ccc(F)cc1F [OMIPALISIB]
f

Test call, this compound: CCS(=O)(=O)c1cccc(-c2cc(C(=O)NC3CCN(C)CC3)c(C)c3[nH]c4ncc(C)cc4c23)c1 [TAK-901]
t

Test call, this compound: CC(C)c1cc(CNc2nc(Nc3cc(C4CC4)[nH]n3)cc(N3CCN(C)CC3)n2)on1 [XL-228]
f

Test call, this compound: Cc1nc2cc(-n3ncc(C(=O)c4cc5ccccc5[nH]4)c3N)ccc2[nH]1 [FGFR INHIBITOR DEBIO 1347]
f

Test call, this compound: CCn1c(C(=O)N(C2CC2)C2CC2)cc2c3c(ncn3C)c(Nc3cc(C)n(C)n3)nc21 [BMS-911543]
f

Test call, this compound: Cc1cc(Nc2ncnc3ccc(NC4=NC(C)(C)CO4)cc23)ccc1Oc1ccn2ncnc2c1 [TUCATINIB]
f

Test call, this compound: COc1c(OCCCN2CCOCC2)ccc2c1N=C(NC(=O)c1cnc(N)nc1)N1CCN=C21 [COPANLISIB]
f

Test call, this compound: CNC(=O)c1cc(Oc2ccc(NC(=O)Nc3cc(C(C)(C)C)nn3-c3ccc4ncccc4c3)c(F)c2)ccn1 [REBASTINIB]
t

Test call, this compound: CN1CCN(CCOc2cc(OC3CCOCC3)c3c(Nc4c(Cl)ccc5c4OCO5)ncnc3c2)CC1 [SARACATINIB]
f

Test call, this compound: C[C@H]1CNCCCN1S(=O)(=O)c1cccc2cncc(F)c12
f

Test call, this compound: Cc1csc(-c2nnc(Nc3ccc(Oc4ncccc4-c4ccnc(N)n4)cc3)c3ccccc23)c1 [AMG-900]
f

Test call, this compound: Cn1cc(-c2cnc3ccc4ccc(CS(=O)(=O)NCc5ccccn5)cc4c(=O)c3c2)cn1 [MK-8033]
f
